# Assay System: Segment polarity protein dishevelled homolog DVL-1 (Homo sapiens)
# Sequence (O14640 whole entry): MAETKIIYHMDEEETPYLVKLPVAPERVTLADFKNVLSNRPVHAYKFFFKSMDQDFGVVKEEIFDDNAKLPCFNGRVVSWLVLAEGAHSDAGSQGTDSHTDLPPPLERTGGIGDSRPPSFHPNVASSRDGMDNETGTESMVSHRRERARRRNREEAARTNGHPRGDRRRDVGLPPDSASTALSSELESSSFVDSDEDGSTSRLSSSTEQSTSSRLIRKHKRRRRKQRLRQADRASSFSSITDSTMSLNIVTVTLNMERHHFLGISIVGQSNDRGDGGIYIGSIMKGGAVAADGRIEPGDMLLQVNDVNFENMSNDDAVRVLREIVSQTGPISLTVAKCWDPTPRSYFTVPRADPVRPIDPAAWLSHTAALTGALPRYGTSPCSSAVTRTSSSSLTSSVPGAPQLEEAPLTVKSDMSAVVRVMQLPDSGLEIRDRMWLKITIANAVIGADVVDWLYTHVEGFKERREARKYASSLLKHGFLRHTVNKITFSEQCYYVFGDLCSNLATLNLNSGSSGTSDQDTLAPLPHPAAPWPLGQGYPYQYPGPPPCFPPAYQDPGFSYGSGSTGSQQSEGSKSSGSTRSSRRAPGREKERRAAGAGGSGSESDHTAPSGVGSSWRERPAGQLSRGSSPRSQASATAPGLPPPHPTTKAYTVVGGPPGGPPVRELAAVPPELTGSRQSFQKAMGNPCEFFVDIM
# Assay Comment: Binding affinity to His-tagged Dvl-1 PDZ domain (247 to 337 residues) (unknown origin) expressed in Escherichia coli BL21 (DE3) assessed as dissociation rate by SPR analysis
Endpoint Label: Dissociation rate constant (koff) (s⁻¹)
// return numeric value only (unit: s⁻¹, not printed)

Query: Need Dissociation rate constant (koff), item O=C(O)Cc1coc2cc(OS(=O)(=O)c3ccc(Cl)cc3F)ccc12
Result: 1.45

Query: Now consider COC(=O)COc1ccc(/C=C2\Sc3ccccc3C2=O)cc1 and answer again.
Result: 2.51

---

# Assay System: Segment polarity protein dishevelled homolog DVL-1 (Mus musculus, UniProt P51141)
# Sequence (P51141 whole entry): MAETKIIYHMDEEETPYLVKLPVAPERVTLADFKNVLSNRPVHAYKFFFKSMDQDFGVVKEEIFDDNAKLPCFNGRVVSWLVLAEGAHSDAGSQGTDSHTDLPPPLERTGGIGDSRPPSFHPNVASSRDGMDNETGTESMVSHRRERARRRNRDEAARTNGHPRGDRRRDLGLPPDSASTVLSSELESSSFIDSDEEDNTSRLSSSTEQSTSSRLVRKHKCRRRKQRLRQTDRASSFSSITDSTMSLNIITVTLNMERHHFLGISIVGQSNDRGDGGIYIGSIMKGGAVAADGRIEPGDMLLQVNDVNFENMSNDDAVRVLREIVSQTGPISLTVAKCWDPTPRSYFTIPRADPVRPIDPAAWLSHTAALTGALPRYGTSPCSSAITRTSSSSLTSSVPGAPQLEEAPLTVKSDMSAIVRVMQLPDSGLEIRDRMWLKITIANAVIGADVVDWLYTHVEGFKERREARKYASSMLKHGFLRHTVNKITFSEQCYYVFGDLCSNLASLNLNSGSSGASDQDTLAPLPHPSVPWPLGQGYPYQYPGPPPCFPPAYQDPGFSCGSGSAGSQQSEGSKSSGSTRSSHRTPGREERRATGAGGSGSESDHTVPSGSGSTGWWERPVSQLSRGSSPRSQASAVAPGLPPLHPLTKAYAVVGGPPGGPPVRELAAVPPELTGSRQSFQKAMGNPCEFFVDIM
Endpoint Label: Kd
Remember to follow the number with its unit.

Query: Which value of Kd has been reported for CC(C)[C@H](OC(=O)[C@H](C)NC(=O)[C@@H](OC(=O)[C@H](C)NC(=O)OC(C)(C)C)C(C)C)C(=O)O in the records?
Result: 237 µM

---

For each entry below, report its Ka value.
Target chain: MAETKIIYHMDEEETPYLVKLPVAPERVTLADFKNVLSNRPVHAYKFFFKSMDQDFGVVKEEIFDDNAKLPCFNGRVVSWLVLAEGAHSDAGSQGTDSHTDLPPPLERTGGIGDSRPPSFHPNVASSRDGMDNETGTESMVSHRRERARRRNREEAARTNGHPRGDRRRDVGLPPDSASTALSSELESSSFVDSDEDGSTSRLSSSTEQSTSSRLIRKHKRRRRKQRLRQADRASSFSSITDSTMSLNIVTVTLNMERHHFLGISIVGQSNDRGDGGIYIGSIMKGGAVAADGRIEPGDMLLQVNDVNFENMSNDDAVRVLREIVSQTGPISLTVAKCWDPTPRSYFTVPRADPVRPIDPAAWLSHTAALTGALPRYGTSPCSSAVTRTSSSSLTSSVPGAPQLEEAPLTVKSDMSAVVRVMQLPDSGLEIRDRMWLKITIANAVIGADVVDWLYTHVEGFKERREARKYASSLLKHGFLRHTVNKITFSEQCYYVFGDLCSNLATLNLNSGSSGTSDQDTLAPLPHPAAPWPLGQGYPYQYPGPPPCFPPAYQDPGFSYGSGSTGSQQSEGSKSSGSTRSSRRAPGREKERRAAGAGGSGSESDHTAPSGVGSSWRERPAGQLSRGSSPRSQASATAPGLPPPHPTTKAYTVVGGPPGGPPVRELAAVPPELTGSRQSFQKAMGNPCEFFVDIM
// return numeric value only (unit: ×10⁴ /M/s, not printed)

Query: Fill blank: measured Ka of the compound O=C(O)C1CCN(C(=O)c2cc(-c3ccc(Cl)s3)nc3ccccc23)CC1 is ____.
Result: 5.47

Query: Lookup O=C(O)Cc1coc2cc(OS(=O)(=O)c3ccc(Cl)cc3F)ccc12
Result: 1.04

---

# Assay System: Segment polarity protein dishevelled homolog DVL-1 (Homo sapiens, UniProt O14640)
# Sequence (O14640 whole entry): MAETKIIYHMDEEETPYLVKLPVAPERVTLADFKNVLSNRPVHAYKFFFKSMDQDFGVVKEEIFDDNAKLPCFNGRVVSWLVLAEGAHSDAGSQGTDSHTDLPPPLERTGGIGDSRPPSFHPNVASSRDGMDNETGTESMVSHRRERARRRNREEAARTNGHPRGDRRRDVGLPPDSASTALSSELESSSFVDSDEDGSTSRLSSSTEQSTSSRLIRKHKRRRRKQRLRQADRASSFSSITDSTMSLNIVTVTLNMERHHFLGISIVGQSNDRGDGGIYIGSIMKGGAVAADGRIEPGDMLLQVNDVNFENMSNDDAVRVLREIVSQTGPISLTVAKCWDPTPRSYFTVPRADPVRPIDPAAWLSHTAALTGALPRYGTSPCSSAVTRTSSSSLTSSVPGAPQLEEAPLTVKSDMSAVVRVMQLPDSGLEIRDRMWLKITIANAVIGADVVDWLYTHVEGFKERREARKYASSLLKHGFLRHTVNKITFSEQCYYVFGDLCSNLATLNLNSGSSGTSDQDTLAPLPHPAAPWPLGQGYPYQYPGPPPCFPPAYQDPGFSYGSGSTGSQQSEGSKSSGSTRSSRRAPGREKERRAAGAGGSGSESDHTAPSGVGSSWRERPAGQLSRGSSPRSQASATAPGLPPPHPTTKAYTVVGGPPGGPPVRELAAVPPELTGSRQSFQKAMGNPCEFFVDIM
# Assay Comment: Binding affinity to His-tagged Dvl-1 PDZ domain (247 to 337 residues) (unknown origin) expressed in Escherichia coli BL21 (DE3) assessed as dissociation rate by SPR analysis
Please go through the items and note down their Dissociation rate constant (koff).
// return numeric value only (unit: ×10⁻¹ /s, not printed)

Query: What measured Dissociation rate constant (koff) goes with COc1cc(/C=C2\Sc3ccccc3C2=O)ccc1OCC(=O)O ?
Result: 6.22

Query: Another compound to look at: CCCN1C(=O)/C(=C/c2ccc(OCC(=O)O)c(Cl)c2)NC1=S
Result: 3.81
